- study target: human α7 nAChR (Homo sapiens)
- Construct: expressed in transfected cells
- protocol summary: Evaluation of PAM activity with human α7 nACh receptor stably expressing cells (aequorin luminescence, FDSS7000)
- Type: cell-based
- test settings: 1 μM test compound (values marked *, footnote of Table 25); ACh at EC20; ratio of RLU (Max-Min) to control wells; read-out: α7PAM (%) @1 μM
- Description: Evaluation of PAM activity with human α7 nACh receptor stably expressing cells (1) Human α7 nAChR stably expressing cells Human α7 nAChR stably expressing cells were generated and cultured. Thus, the cells were subcultured. Seven days after subculturing, the cells were treated with TrypLE Express to collect them when they were about 80% confluent. […] FDSS7000 (Hamamatsu Photonics) was used to detect the luminescence signal evoked by α7 nAChR stimulation. […]
measured property: activity at 1 µM (%)
Hi! Could you send only the number? It should be in %, unit omitted.

Task item: Which activity at 1 µM reading was recorded for the compound `N#Cc1c(-c2cccc(F)c2F)ncn1[C@@H]1C[C@H]2CC[C@@H](C1)N2C(=O)C1CCC(F)(F)CC1` ?
Reply: 181

Task item: Note, next up: `CC(C)(F)C(=O)N[C@H]1CC[C@@H](n2cnc(-c3cc(F)c(Cl)cc3F)c2)CC1`
Reply: 267

Task item: Note, next up: `O=C(NC1CCOCC1)[C@H]1CC[C@@H](n2cnc(-c3ccc(F)c(F)c3)c2)CC1`
Reply: 130

Task item: Note, next up: `CC(C)(F)C(=O)N[C@H]1CC[C@@H](n2cnc(-c3ccccc3OC(F)(F)F)c2Cl)CC1`
Reply: 467

---

- study target: human α7 nAChR (Homo sapiens, UniProt P36544)
- Construct: expressed in transfected cells
- Sequence (P36544 23-502): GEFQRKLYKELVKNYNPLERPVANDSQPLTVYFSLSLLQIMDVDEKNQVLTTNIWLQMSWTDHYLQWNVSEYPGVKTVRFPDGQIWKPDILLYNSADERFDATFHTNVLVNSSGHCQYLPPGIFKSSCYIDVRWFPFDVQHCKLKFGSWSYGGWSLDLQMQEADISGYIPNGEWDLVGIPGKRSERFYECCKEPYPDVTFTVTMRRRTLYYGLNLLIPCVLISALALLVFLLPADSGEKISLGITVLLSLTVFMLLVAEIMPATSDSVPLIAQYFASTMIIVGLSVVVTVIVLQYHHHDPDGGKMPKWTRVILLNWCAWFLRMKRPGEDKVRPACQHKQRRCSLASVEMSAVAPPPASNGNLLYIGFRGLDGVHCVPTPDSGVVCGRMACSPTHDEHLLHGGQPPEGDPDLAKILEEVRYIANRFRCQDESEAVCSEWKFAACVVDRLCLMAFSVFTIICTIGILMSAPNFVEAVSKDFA
- protocol summary: Evaluation of PAM activity with human α7 nACh receptor stably expressing cells (aequorin luminescence, FDSS7000)
- Assay type: cell-based
- test settings: 10 μM test compound; ACh at EC20; ratio of RLU (Max-Min) to control wells; read-out: α7PAM (%) @10 μM
Please respond with true (1) when measured activity at 10 µM is strictly beneath 500%, and with false (0) in all other cases.

Task item: # TODO verify activity at 10 µM < 500% strictly for this compound: N#Cc1c(-c2ccccc2)ncn1C1CCN(C(=O)C2CCC(F)(F)CC2)CC1 [Example 7]
Reply: false (0)

Task item: Note, next up: O=C(Nc1ccccc1F)N1CCC(n2cnc(-c3ccc(C(F)(F)F)cc3)c2)CC1 [Example 24]
Reply: true (1)

Task item: Note, next up: Cc1c(-c2ccc(F)cc2)ncn1[C@H]1CC[C@@H](NC(=O)C(C)(C)F)CC1 [Example 351]
Reply: false (0)

Task item: Note, next up: O=C(NC1CCC(F)(F)CC1)N1[C@@H]2CC[C@H]1C[C@H](n1cnc(-c3cccc(F)c3F)c1)C2 [Example 409]
Reply: false (0)

Task item: Note, next up: Cc1c(-c2ccc(F)cc2)ncn1C1CCN(C(=O)NC(C)(C)C)CC1 [Example 257]
Reply: true (1)

Task item: Note, next up: O=C(NC1CCCCC1)N1CCC(n2cnc(-c3ccc(OC(F)F)cc3)c2)CC1 [Example 54]
Reply: true (1)

Task item: Note, next up: O=C(NC1CCCCC1)N1CCC(n2cnc(-c3cccc(OC(F)F)c3)c2)CC1 [Example 53]
Reply: true (1)
